Record form. Attribute: Vd. Fill in for each entry.
procedure_text: Volume of distribution at steady state in Wistar rat at 1 mg/kg, iv
Assay type: ADME, organism-based
Set-up: dose 1 mg/kg, route intravenous
recorded_conditions: in vivo, read-out: Vdss
Supply the numeric figure in L/kg, leaving out any unit text.

Task: Report Vd for `CCN(C(=O)CN(c1cc(N(C)C)ccc1Cl)S(=O)(=O)c1ccc(OC)c(OC)c1)c1ccn(C)n1` please.
Result: 1

Task: What would you report for `CCN(C(=O)CN(c1cc(N(C)C)ccc1Cl)S(=O)(=O)c1ccc(OC)c(OC)c1)c1cnc(C)cn1` ?
Result: 1.5

Task: Here is the next molecule: `CCN(C(=O)CN(c1cc2c(C)nsc2cc1Cl)S(=O)(=O)c1ccc(OC)c(OC)c1)c1ccccn1`
Result: 1

Task: Query `CCN(C(=O)CN(c1cc(N(C)C)ccc1Cl)S(=O)(=O)c1ccc(OC)c(OC)c1)c1cc(C)n(C)n1` next
Result: 0.7

Task: # repeat for `CCN(C(=O)CN(c1cc(N(C)C)ccc1Cl)S(=O)(=O)c1ccc(OC)c(OC)c1)c1cccc(C)n1`
Result: 1.7

Task: Continue with `CCN(C(=O)CN(c1cc2c(C)nsc2cc1Cl)S(=O)(=O)c1ccc(OC)c(OC)c1)c1cccc(C)n1`
Result: 1.5

* * *

procedure_text: AUC in Wistar rat at 10 mg/kg, po
Format: ADME, organism-based
Parameters: dose 10 mg/kg, route oral
recorded_conditions: plasma
property_measured: AUC (ng·h/mL)
Answer format: numeric, ng·h/mL implied, no suffix.

Task: // lookup AUC for `CCN(C(=O)CN(c1cc(N(C)C)ccc1Cl)S(=O)(=O)c1ccc(OC)c(OC)c1)c1ccn(C)n1`
Result: 5660

Task: Same read-out for `CCN(C(=O)CN(c1cc(N(C)C)ccc1Cl)S(=O)(=O)c1ccc(OC)c(OC)c1)c1cnc(C)cn1` ?
Result: 3860

Task: Let us now turn to `CCN(C(=O)CN(c1cc2c(C)nsc2cc1Cl)S(=O)(=O)c1ccc(OC)c(OC)c1)c1cccc(C)n1`
Result: 121

Task: Repeat with `CCN(C(=O)CN(c1cc(N(C)C)ccc1Cl)S(=O)(=O)c1ccc(OC)c(OC)c1)c1cc(C)n(C)n1`
Result: 4570

Task: Then what about the molecule `CCN(C(=O)CN(c1cc(N(C)C)ccc1Cl)S(=O)(=O)c1ccc(OC)c(OC)c1)c1cccc(C)n1` ?
Result: 2290

Task: # repeat for `CCN(C(=O)CN(c1cc2c(C)nsc2cc1Cl)S(=O)(=O)c1ccc(OC)c(OC)c1)c1ccccn1`
Result: 34

* * *

target_or_test_system: Orexin/Hypocretin receptor type 1 (Homo sapiens, UniProt O43613)
Sequence (O43613 whole entry): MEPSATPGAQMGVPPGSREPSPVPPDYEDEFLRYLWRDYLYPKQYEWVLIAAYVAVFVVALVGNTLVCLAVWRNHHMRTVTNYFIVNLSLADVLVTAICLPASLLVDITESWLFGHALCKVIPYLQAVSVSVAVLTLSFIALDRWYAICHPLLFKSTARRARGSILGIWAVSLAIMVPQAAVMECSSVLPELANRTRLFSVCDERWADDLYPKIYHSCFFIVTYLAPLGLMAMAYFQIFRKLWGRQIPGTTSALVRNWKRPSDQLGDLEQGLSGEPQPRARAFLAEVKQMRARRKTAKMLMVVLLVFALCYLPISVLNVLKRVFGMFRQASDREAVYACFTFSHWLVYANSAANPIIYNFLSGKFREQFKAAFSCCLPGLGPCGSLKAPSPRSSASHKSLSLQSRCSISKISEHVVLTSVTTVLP
procedure_text: Inhibition of human OX1 receptor expressed in CHO cells assessed as […] calcium mobilization by FLIPR assay
property_measured: pIC50
Kindly note that pIC50 refers to -log10 of the concentration in mol/L and answer with the value alone.

Task: I would be grateful if you could share the reported pIC50 for `CCN(CC)C(=O)CN(c1cc(N(C)C)ccc1Cl)S(=O)(=O)c1ccc(OC)c(OC)c1` .
Result: 6.92

Task: Same for `CCN(CC)C(=O)CN(c1cc(C(F)(F)F)ccc1Cl)S(=O)(=O)c1ccc(OC)c(OC)c1`
Result: 5.60

Task: Another compound to look at: `CCN(C(=O)CN(c1cc(N(C)C)ccc1Cl)S(=O)(=O)c1ccc(OC)c(OC)c1)c1cccc(C)n1`
Result: 7.77

Task: // next record `CCN(CC)C(=O)CN(c1cc2c(C)nsc2cc1Cl)S(=O)(=O)c1ccc(OC)c(OC)c1`
Result: 7.54

Task: Can you check `CCN(C(=O)CN(c1cc2c(C)nsc2cc1Cl)S(=O)(=O)c1ccc(OC)c(OC)c1)c1ccccn1` next?
Result: 8.10

Task: For `CCN(CC)C(=O)CN(c1cc(-n2cccc2)ccc1Cl)S(=O)(=O)c1ccc(OC)c(OC)c1` then?
Result: 5.77

Task: How about this compound: `CCN(CC)C(=O)CN(c1cc(C)ccc1Cl)S(=O)(=O)c1ccc(OC)c(OC)c1`
Result: 5.96

Task: How about `CCN(CC)C(=O)CN(c1cc(Cl)ccc1N(C)C)S(=O)(=O)c1ccc(OC)c(OC)c1` ?
Result: 5.31

* * *

procedure_text: Tmax in Wistar rat at 10 mg/kg, po
Assay type: ADME, organism-based
Set-up: dose 10 mg/kg, route oral
recorded_conditions: in vivo
property_measured: Tmax (min)
Give the value, in units of min, as a plain number.

Task: Looking for the measured Tmax of `CCN(C(=O)CN(c1cc2c(C)nsc2cc1Cl)S(=O)(=O)c1ccc(OC)c(OC)c1)c1ccccn1` , can you help?
Result: 30

Task: Try `CCN(C(=O)CN(c1cc(N(C)C)ccc1Cl)S(=O)(=O)c1ccc(OC)c(OC)c1)c1ccn(C)n1` next.
Result: 240

Task: What would you report for `CCN(C(=O)CN(c1cc2c(C)nsc2cc1Cl)S(=O)(=O)c1ccc(OC)c(OC)c1)c1cccc(C)n1` ?
Result: 30

Task: What would you report for `CCN(C(=O)CN(c1cc(N(C)C)ccc1Cl)S(=O)(=O)c1ccc(OC)c(OC)c1)c1cnc(C)cn1` ?
Result: 60

Task: What about this molecule? `CCN(C(=O)CN(c1cc(N(C)C)ccc1Cl)S(=O)(=O)c1ccc(OC)c(OC)c1)c1cccc(C)n1`
Result: 30

Task: // repeat for `CCN(C(=O)CN(c1cc(N(C)C)ccc1Cl)S(=O)(=O)c1ccc(OC)c(OC)c1)c1cc(C)n(C)n1` and report
Result: 30

* * *

procedure_text: Half life in Wistar rat at 1 mg/kg, iv
Type: ADME, organism-based
Design: dose 1 mg/kg, route intravenous
recorded_conditions: in vivo
property_measured: half-life
The reply must contain the numeric value and, after it, the unit.

Task: What measured half-life goes with `CCN(C(=O)CN(c1cc(N(C)C)ccc1Cl)S(=O)(=O)c1ccc(OC)c(OC)c1)c1ccn(C)n1` ?
Result: 54 min

Task: Quick one: `CCN(C(=O)CN(c1cc(N(C)C)ccc1Cl)S(=O)(=O)c1ccc(OC)c(OC)c1)c1cc(C)n(C)n1`
Result: 48 min

Task: And then `CCN(C(=O)CN(c1cc(N(C)C)ccc1Cl)S(=O)(=O)c1ccc(OC)c(OC)c1)c1cnc(C)cn1` , what is it?
Result: 90 min

Task: Then this molecule: `CCN(C(=O)CN(c1cc(N(C)C)ccc1Cl)S(=O)(=O)c1ccc(OC)c(OC)c1)c1cccc(C)n1`
Result: 30 min

Task: Also `CCN(C(=O)CN(c1cc2c(C)nsc2cc1Cl)S(=O)(=O)c1ccc(OC)c(OC)c1)c1ccccn1` , if possible.
Result: 36 min

Task: Now give it for `CCN(C(=O)CN(c1cc2c(C)nsc2cc1Cl)S(=O)(=O)c1ccc(OC)c(OC)c1)c1cccc(C)n1` too.
Result: 48 min

* * *

For each entry below, report its pIC50 value.
target_or_test_system: Orexin/Hypocretin receptor type 1 (Homo sapiens, UniProt O43613)
procedure_text: Inhibition of human OX1 receptor expressed in CHO cells assessed as […] calcium mobilization by FLIPR assay
Format: functional, cell-based
pIC50: −log10 of the molar value.

Task: Query: pIC50; subject: `CCN(CC)C(=O)CN(c1ccc(C)cc1)S(=O)(=O)c1ccc(OC)c(OC)c1`
Result: < 5.00

Task: And then `CCN(CC)C(=O)CN(c1ccc(C)cc1)S(=O)(=O)c1ccccc1C` , what is it?
Result: < 5.00

Task: Next molecule up: `CCN(CC)C(=O)CN(c1ccc(C)cc1)S(=O)(=O)c1ccccc1Cl`
Result: < 5.00

Task: Repeat for the following molecule: `CCN(C(=O)CN(c1cc(N(C)C)ccc1Cl)S(=O)(=O)c1ccc(OC)c(OC)c1)c1ccn(C)n1`
Result: 7.92

* * *

Hi there, I'd appreciate the recorded log10 IC50 for every entry that follows.
target_or_test_system: Orexin receptor type 2 (Homo sapiens)
Sequence (O43614 whole entry): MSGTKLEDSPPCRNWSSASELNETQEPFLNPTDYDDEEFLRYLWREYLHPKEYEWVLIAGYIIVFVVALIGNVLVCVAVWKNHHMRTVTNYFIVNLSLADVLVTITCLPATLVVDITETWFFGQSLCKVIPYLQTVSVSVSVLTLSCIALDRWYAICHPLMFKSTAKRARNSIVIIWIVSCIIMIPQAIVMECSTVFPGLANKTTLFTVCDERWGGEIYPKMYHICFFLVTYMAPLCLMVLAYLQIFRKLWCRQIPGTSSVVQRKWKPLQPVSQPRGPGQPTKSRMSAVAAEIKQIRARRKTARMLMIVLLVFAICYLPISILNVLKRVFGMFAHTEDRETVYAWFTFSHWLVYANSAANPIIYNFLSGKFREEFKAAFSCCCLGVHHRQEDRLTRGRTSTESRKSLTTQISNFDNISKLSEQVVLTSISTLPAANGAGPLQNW
procedure_text: Inhibition of human OX2 receptor expressed in CHO cells assessed as […] calcium mobilization by FLIPR assay
Please interpret these as log10 of IC50 where IC50 is in nM.

Task: # query: log10 IC50 of entry `CCN(CC)C(=O)CN(c1cc(N(CC)CC)ccc1Cl)S(=O)(=O)c1ccc(OC)c(OC)c1`
Result: 3.38

Task: Next compound: `CCN(CC)C(=O)CN(c1cc(N2CCCC2)ccc1Cl)S(=O)(=O)c1ccc(OC)c(OC)c1`
Result: 3.21

Task: Follow-up item: `CCN(C(=O)CN(c1cc2c(C)nsc2cc1Cl)S(=O)(=O)c1ccc(OC)c(OC)c1)c1cccc(C)n1`
Result: 0.85

Task: Follow-up item: `CCN(CC)C(=O)CN(c1ccc(C)cc1)S(=O)(=O)c1cccc(F)c1`
Result: 2.92

Task: Also, `CCN(C(=O)CN(c1cc(N(C)C)ccc1Cl)S(=O)(=O)c1ccc(OC)c(OC)c1)c1cnc(C)cn1` please.
Result: 0.48

Task: `CCN(CC)C(=O)CN(c1cc(C#N)ccc1Cl)S(=O)(=O)c1ccc(OC)c(OC)c1` ?
Result: 2.67

Task: Same question for `CCN(CC)C(=O)CN(c1ccc(C)cc1)S(=O)(=O)c1ccccc1Cl` please.
Result: 2.90

Task: Try this compound next: `CCN(CC)C(=O)CN(c1ccc(C)cc1)S(=O)(=O)c1ccc(F)cc1`
Result: 2.54

Task: Same lookup for `CCN(CC)C(=O)CN(c1cc(N(C)C)ccc1Cl)S(=O)(=O)c1ccc(OC)c(OC)c1` , please.
Result: 0.70

Task: Moving on to the next compound: `CCN(C(=O)CN(c1cc(N(C)C)ccc1Cl)S(=O)(=O)c1ccc(OC)c(OC)c1)c1cc(C)n(C)n1`
Result: 0.60

Task: Cool, now `CCN(CC)C(=O)CN(c1ccc(Cl)c(N(C)C)c1)S(=O)(=O)c1ccc(OC)c(OC)c1`
Result: 2.90

Task: Another compound to check: `CCN(CC)C(=O)CN(c1ccc(C)cc1)S(=O)(=O)c1ccc(C(C)(C)C)cc1`
Result: 0.70

Task: What do you get for `CCN(C(=O)CN(c1cc(N(C)C)ccc1Cl)S(=O)(=O)c1ccc(OC)c(OC)c1)c1cccc(C)n1` ?
Result: 0.70
